Target: RDL receptors (Drosophila melanogaster)
Sequence (P25123 45-606): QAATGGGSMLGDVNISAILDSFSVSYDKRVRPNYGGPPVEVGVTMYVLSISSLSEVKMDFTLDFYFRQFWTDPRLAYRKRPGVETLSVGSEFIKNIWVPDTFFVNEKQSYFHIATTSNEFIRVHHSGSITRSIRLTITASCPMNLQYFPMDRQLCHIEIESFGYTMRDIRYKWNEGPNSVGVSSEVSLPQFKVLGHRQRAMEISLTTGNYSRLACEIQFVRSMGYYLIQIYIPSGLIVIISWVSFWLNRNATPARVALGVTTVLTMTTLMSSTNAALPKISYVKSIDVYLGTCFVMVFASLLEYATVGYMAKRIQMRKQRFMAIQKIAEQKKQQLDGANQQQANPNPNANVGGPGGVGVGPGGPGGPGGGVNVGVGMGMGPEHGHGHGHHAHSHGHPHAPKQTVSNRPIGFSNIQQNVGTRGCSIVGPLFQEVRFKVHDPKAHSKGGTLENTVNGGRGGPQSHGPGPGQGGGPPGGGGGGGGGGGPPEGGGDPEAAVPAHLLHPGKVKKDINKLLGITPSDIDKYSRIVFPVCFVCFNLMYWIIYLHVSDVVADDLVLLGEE
Assay: Two-electrode voltage clamp of RDL receptors expressed in Xenopus oocytes
Assay type: cell-based
Conditions: EC50, RDL receptors in Xenopus oocytes; Table 1
pEC50: −log10 of the molar value.
measured.attribute: pEC50

Some entries whose results are on file:
Entry `Oc1noc2c1CCNC2` , pEC50 reported as 3.65

Entry `NCc1cc(=O)[nH]o1` , pEC50 reported as 5.04

Entry `NCCC(=O)O` , pEC50 reported as 3.09

I. NCCCCC(=O)O
II. NCC=CC(=O)O
III. O=C(O)C1=CCNCC1
input: Reorder the items by pEC50, least to greatest. Show the ranking through the labels, in the order asked for.
output: I, III, II

###

Biological target: RDL receptors (Drosophila melanogaster)
Experiment: Two-electrode voltage clamp of RDL receptors expressed in Xenopus oocytes
Type: cell-based
Details: EC50, RDL receptors in Xenopus oocytes
measured.attribute: pEC50
// pEC50: -log10(molar conc.)

Entry `Oc1noc2c1CCNC2` , pEC50 reported as 3.66

###

Biological target: RDL receptors (Drosophila melanogaster)
Assay: Two-electrode voltage clamp of RDL receptors expressed in Xenopus oocytes
Type: cell-based
Conditions: RDL receptors in Xenopus oocytes; means ± SEM
measured.attribute: nH (Hill coefficient)

The recorded nH (Hill coefficient) with RDL receptors (Drosophila melanogaster) for NCCCC(=O)O [GABA, γ-aminobutyric acid] was 1.8

The recorded nH (Hill coefficient) with RDL receptors (Drosophila melanogaster) for NCc1cc(=O)[nH]o1 [muscimol] was 2.2

The recorded nH (Hill coefficient) with RDL receptors (Drosophila melanogaster) for Oc1noc2c1CCNC2 [THIP] was 2.4

The recorded nH (Hill coefficient) with RDL receptors (Drosophila melanogaster) for O=C(O)C1=CCNCC1 [isoguvacine] was 1.9

The recorded nH (Hill coefficient) with RDL receptors (Drosophila melanogaster) for NCCC(=O)O [β-alanine] was 2.0

A. NCCCCC(=O)O [5-AV, 5-aminovaleric acid]
B. NCC=CC(=O)O [TACA, 4-amino-2-butenoic acid]
input: Which numeric nH (Hill coefficient) is bigger, that of A or that of B ? // return label of chosen record
output: B

###

Target: RDL receptors (Drosophila melanogaster)
Experiment: Two-electrode voltage clamp of RDL receptors expressed in Xenopus oocytes
Format: cell-based
Conditions: maximal current relative to maximal GABA-evoked response; means ± SEM
measured.attribute: Imax/Imax(GABA)

Entry `NCCC(=O)O` , Imax/Imax(GABA) reported as 1.0

Entry `NCc1cc(=O)[nH]o1` , Imax/Imax(GABA) reported as 0.87

Entry `O=C(O)C1=CCNCC1` , Imax/Imax(GABA) reported as 0.97

Entry `NCCCCC(=O)O` , Imax/Imax(GABA) reported as 0.85

Entry `NCC=CC(=O)O` , Imax/Imax(GABA) reported as 1.0

Entry `Oc1noc2c1CCNC2` , Imax/Imax(GABA) reported as 0.57
